Target: M4 mAChR (Homo sapiens, UniProt P08173)
Construct: expressed in transfected cells; host or cells: CHO-K1
Sequence (P08173 whole entry): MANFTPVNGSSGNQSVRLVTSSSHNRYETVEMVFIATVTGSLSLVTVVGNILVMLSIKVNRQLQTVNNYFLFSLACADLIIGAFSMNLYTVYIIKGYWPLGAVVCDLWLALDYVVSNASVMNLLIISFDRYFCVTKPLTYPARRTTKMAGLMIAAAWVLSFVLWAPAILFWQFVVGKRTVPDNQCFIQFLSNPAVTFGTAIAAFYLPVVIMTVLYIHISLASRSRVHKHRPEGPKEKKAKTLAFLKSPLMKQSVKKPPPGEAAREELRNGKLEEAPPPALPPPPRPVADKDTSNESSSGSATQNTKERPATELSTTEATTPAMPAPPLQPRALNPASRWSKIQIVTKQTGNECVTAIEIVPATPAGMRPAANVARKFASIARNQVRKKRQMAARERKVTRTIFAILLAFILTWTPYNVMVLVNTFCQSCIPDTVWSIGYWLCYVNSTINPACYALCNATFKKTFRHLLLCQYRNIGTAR
Assay: cAMP TR-FRET assay with forskolin, M4-overexpressing CHO-K1 cells
Format: cell-based
Conditions: cAMP assay
As shown below, each of these molecules has a reported Emax value.

| MOLECULE | ASSAY_METRIC | VALUE_OBSERVED |
| --- | --- | --- |
| CCOC(=O)N1CC2(CC[C@@H](N3CCN(c4cc(F)cnc4-c4ccc(F)cn4)CC3)C2)C1 [Compound A218] | Emax | 80 to 100% |

In: Any idea what Emax was measured for CCOC(=O)N1CC2(CC(N3[C@@H]4CC[C@H]3CN(c3cc(F)cnc3-c3cnccn3)C4)CS2)C1 (single isomer, unassigned) [Compound A219] ?
Out: < 19%

In: Likewise for CCOC(=O)N1CC2(CC[C@@H](N3CCN(c4cc(F)cnc4-c4ccn5nccc5c4)CC3)C2)C1 [Compound A165] ?
Out: 80 to 100%

In: Likewise for CCOC(=O)N1CC2(CC[C@H](N3CCC(c4cc(F)cnc4-c4ccc(F)cn4)CC3)C2)C1 [Compound A293] ?
Out: 80 to 100%

In: Likewise for CCOC(=O)N1CC2(CC[C@@H](N3CCN(c4cc(F)cnc4-c4ccc5c(c4)CN(C)C5=O)CC3)C2)C1 [Compound A192] ?
Out: 80 to 100%

In: Likewise for CCOC(=O)N1CC2(CC[C@@H](N3CCN(c4cc(F)cnc4-c4ccc(F)nc4C)CC3)C2)C1 [Compound A161] ?
Out: 80 to 100%
